# Test system: Vero E6 infected with SARS-CoV-2
# Procedure Summary: morphology score (similarity to uninfected cells); higher = more like uninfected cells
# Assay Conditions: 24 h
Please mark TRUE if the recorded morphology score is equal to or greater than 0.03, and FALSE if it falls below.

C[C@H](Cc1cc2c(c(C(N)=O)c1)N(CCCO)CC2)NCCOc1ccccc1OCC(F)(F)F [silodosin] (10 µM) | FALSE

We now examine a further molecule.
[Q] Is the recorded value of morphology score equal to or greater than 0.03 for this molecule? NC(=O)CN1CC(O)CC1=O (configuration not stated) [oxiracetam] (10 µM)
[A] FALSE

* * *

# Tested on: Vero E6 infected with SARS-CoV-2
# Procedure Summary: SARS-CoV-2 infection rate relative to infected DMSO; higher = more infection, active = 60 or less
# Assay Conditions: 24 h
Counter-ions that a name gives are not always drawn.
Select the correct class. Options are active, inactive and nothing else.

CC/C(=C(\c1ccc(O)cc1)c1ccc(OCCNC)cc1)c1ccccc1 [Endoxifen HCl] (10 µM) | active
O[C@@H](CN1CCNCC1)Cn1c2ccc(Br)cc2c2cc(Br)ccc21 [BAX-channel-blocker] (0.833333 µM) | inactive
CC(=O)O[C@H]1C[C@@H]2CC[C@@H]3[C@H](CC[C@@]4(C)[C@H]3C[C@H]([N+]3(C)CCCCC3)[C@@H]4OC(C)=O)[C@@]2(C)C[C@@H]1[N+]1(C)CCCCC1 [pancuronium] (10 µM) | inactive
N[C@@H](CCNCc1ccc(Cl)cc1)C(=O)N1CCCCC1 (10 µM) | inactive
CN1CCN(CCCN2c3ccccc3Sc3ccc(C(F)(F)F)cc32)CC1 [trifluoperazine] (0.833333 µM) | inactive

[Q] Would you mind telling me which call this test gave O=[N+]([O-])c1cnc(Sc2nnc(O)n2-c2ccc3c(c2)OCCO3)s1 (0.833333 µM) ?
[A] inactive

[Q] Could you please tell me the result logged for Cn1c(COc2ccc(CC3SC(=O)NC3=O)cc2)nc2ccccc2c1=O (stereo not given) [balaglitazone] (10 µM) in this assay?
[A] inactive

[Q] Just curious, what result did O=C(Nc1ccc(CN2CCOCC2)cc1)c1ccc(-c2cccc(Cl)c2)o1 (10 µM) get here?
[A] inactive

[Q] Test call for this molecule, please: CC1=C(/C=C/C(=C/C=C/C(C)=C/C(=O)O)c2ccc(C)cc2)C(C)(C)CCC1 (10 µM)
[A] inactive

[Q] In this assay, the call recorded for CC1(C)O[C@@H]2C[C@H]3[C@@H]4CCC5=CC(=O)C=C[C@]5(C)[C@@]4(F)[C@@H](O)C[C@]3(C)[C@]2(C(=O)CO)O1 (10 µM) was what?
[A] inactive

[Q] Call for entry Cc1nccc2[nH]c(=O)ccc12 [medorinone] (10 µM) :
[A] inactive

[Q] What did this assay record as the result for N#Cc1nn(-c2c(Cl)cc(C(F)(F)F)cc2Cl)c(N)c1[S+]([O-])C(F)(F)F (stereo not given) [fipronil] (10 µM) ?
[A] inactive

[Q] What is the recorded call for this molecule in the test? Cc1nc2c(c(=O)[nH]1)CSCC2 (10 µM)
[A] inactive

[Q] Short answer needed: outcome of this test for CC[C@]1(O)C[C@@H]2CN(CCc3c([nH]c4ccccc34)[C@@](C(=O)OC)(c3cc4c(cc3OC)N(C)[C@H]3[C@@](O)(C(N)=O)[C@H](O)[C@]5(CC)C=CCN6CC[C@]43[C@@H]65)C2)C1 [vindesine] (10 µM) ?
[A] inactive

[Q] Lab log entry: Cc1nnc(C[C@@H]2C=C(c3ccc(Cl)cc3)c3ccccc3-n3c(C)nnc32)o1 (0.833333 µM) — outcome as called in the assay?
[A] inactive
